These entries and their values trace back to patent US20220119472A1.

# TGT: T1, recombinant His6-tagged extracellular domain of human Clec4C (C-type lectin domain family 4, member C) (human, UniProt Q8WTT0 44-213)
# T1 construct: Same antigen for immunisation, panning and ELISA; also called His-Clec4C(EC); pMET7-SIgK-His-Clec4C(EC)
# T1 sequence: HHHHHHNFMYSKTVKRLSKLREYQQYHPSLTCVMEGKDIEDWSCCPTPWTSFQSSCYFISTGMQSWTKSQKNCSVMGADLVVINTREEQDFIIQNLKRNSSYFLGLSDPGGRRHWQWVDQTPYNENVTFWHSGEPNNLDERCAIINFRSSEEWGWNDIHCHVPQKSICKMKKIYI
# ASSAY: ELISA, antigen-coated vs uncoated blocked wells
PROPERTY NAME: ELISA ratio coated/uncoated

[[record]]
binder = "2CL7 (VHH, pMECS VHH-HA-His6; TG1 periplasmic extract) VHH: QVQLQESGGGLVQAGDSLRLSCAPSGFTFDGYAIGWFRQAPGKEREKVACINKSDGLTYYEDSVKGRFTISSDTAKNTIHLQMNSLKPDDTAVYYCAAAWECDYAPADFGSWGQGTQVTVSS"
experimental_result = 6.57

[[record]]
binder = "2CL18 (VHH, pMECS VHH-HA-His6; TG1 periplasmic extract) VHH: QVQLQESGGGLVQAGGSLRLSCAPSGFTFDGYAIGWFRQAPGKEREKVACINKSDGLTYYEDSVKGRFTISSDTAKNTIHLQMNSLKPDDTAVYYCAAAWECDYAPADFGSWGQGTQVTVSS"
experimental_result = 4.74

[[record]]
binder = "2CL4 (VHH, pMECS VHH-HA-His6; TG1 periplasmic extract) VHH: QVQLQESGGGLVQPGGSLRISCAGSGSTFRHHAMAWFRQTAGKEREFVSAINDHGTKTRYSDSVRGRFTISRDNDENMVYLQMDNLRSEDTANYTCAAGPLVDYLETVPVVYTYWGQGTQVTVSS"
experimental_result = 31.3

[[record]]
binder = "2CL52 (VHH, pMECS VHH-HA-His6; TG1 periplasmic extract) VHH: QVQLQESGGGLAQAGASLRLSCAGSGNNFEHYAVAWFRQEAPGKERDFVAAIRDYGDRTRYADSVKGRFTISRDNAKSMVYLEMNNLKPEDTAVYYCTAGPLNDYLEVTPLVYTYWGQGTQVTVSS"
experimental_result = 7.07

